The measurements presented in this section are drawn from PubChem BioAssay (EPA / NIEHS).

method_description: ATG_SREBP_CIS: Attagene CIS-FACTORIAL HepG2 Assay for human Sterol Regulatory Element Binding (SREBP) (AID 2282962)
measurement_conditions: HepG2 Attagene cis-factorial SREBP reporter, mRNA; actives raise or lower the signal
Calls of active or inactive are those of the source. The calls were made as follows: active = hit-call score of the fitted dose curve at least 0.9, where 1 is the maximum; inactive = score below 0.9.
Labels: T (active), F (inactive)

| compound | discrete_label |
| --- | --- |
| O=c1[nH]c(=O)c2cn[nH]c2[nH]1 | F |
| CC(=O)O[C@H]1C[C@@H]2CC[C@@]1(C)C2(C)C | F |
| CCCCCCC(C)(C)S | F |
| CCOC(=O)c1ccc(N)cc1 | F |
| CC1CC(O)CC(C)(C)C1 (centres undefined) | F |
| Clc1cc(Cl)c(-c2c(Cl)c(Cl)cc(Cl)c2Cl)cc1Cl | T |
| CS(=O)(=O)c1ccc(C2=C(c3ccccc3)C(=O)OC2)cc1 | F |
| O=C1OC2(c3ccccc31)c1ccc(O)c(Br)c1Oc1c2ccc(O)c1Br | F |
| C=CCCC(=O)/C=C/C1C(C)=CCCC1(C)C (centres undefined) | T |
| CCOC(=O)[C@@H](C)Oc1ccc(Oc2nc3ccc(Cl)cc3o2)cc1 | F |
| CCCCCCCCCCCCCC(=O)OCC(O)CO (centres undefined) | T |
| CCC(C)=O | F |
| CC(C)CC(C)CC(O)CC(C)C (centres undefined) | F |
| CCCCCC(C=O)=Cc1ccccc1 | F |
| CN(C)C(=O)Nc1ccc(Oc2ccc(Cl)cc2)cc1 | F |
| CC(=O)NCCO | F |
| CCOc1ccc(NC(=O)CC(C)O)cc1 (centres undefined) | F |
| CCCCC1(COC(=O)CCC(=O)O)C(=O)N(c2ccccc2)N(c2ccccc2)C1=O | F |
| c1ccc2[nH]cnc2c1 | F |
| CC(C)C(OC(=O)c1ccccc1)C(C)(C)COC(=O)c1ccccc1 (centres undefined) | F |
| Cc1ccc(S(=O)(=O)Oc2ccc(N=Nc3ccc(-c4ccc(N=Nc5c(O)ccc6cc(S(=O)(=O)O)cc(S(=O)(=O)O)c56)c(C)c4)cc3C)cc2)cc1 | F |
| CC(=O)c1c(C)c([N+](=O)[O-])c(C(C)(C)C)c([N+](=O)[O-])c1C | F |
| N#Cc1ccc(CC(=O)c2cccc(C(F)(F)F)c2)cc1 | F |
| COc1ccc(COC(C)=O)cc1 | F |
| CCCCCCC(=O)c1ccccc1 | F |
| CC(C)CCOC(=O)c1ccccc1 | F |
| COc1ccccc1[N+](=O)[O-] | F |
| CC(C)(C)OC(=O)c1ccc(O)cc1 | F |
| CCC1(c2ccccc2)C(=O)NCNC1=O | F |
| CCCCCCCCCCCCCCCC(=O)OC/C=C(C)/C=C/C=C(C)/C=C/C1=C(C)CCCC1(C)C | F |
| ClC(c1ccccc1)(c1ccccc1)c1ccccc1 | F |
| O=[N+]([O-])c1ccc(O)cc1C(F)(F)F | T |
| Cc1ccc(N)c(S(=O)(=O)O)c1 | F |
| C=C[Si]1(C)O[Si](C)(C=C)O[Si](C)(C=C)O[Si](C)(C=C)O1 (centres undefined) | F |
| O=C(O)CCCCCCCCCCCC(=O)O | F |
| CCCCCC(C)=O | F |
| CCc1ccc(O)c(OC)c1 | F |
| C=CC(C)(O)CCC=C(C)C (centres undefined) | F |
| CCCCCCCCCCCC(=O)OC[C@@H](O)[C@H]1OC[C@H](O)[C@H]1O | F |
| [O-]n1ccccc1=S.[O-]n1ccccc1=S.[Zn+2] | F |
| CN(C)CCOC(C)(c1ccccc1)c1ccccn1 (centres undefined) | F |
| Nc1ccc(N)c2c1C(=O)c1ccccc1C2=O | F |
| CCC(Cl)C(Cl)C(Cl)CC(Cl)C(Cl)C(C)Cl (centres undefined) | F |
| C=C(C)[C@H]1CC=C(C)C(=O)C1 | F |
| CCOC(=O)COC(=O)c1cc(Oc2ccc(C(F)(F)F)cc2Cl)ccc1[N+](=O)[O-] | F |
| CC(C)OCCO | F |
| C=C1CC[C@H](O)C/C1=C/C=C1\CCC[C@]2(C)[C@@H]([C@H](C)/C=C/[C@H](C)C(C)C)CC[C@@H]12 | F |
| CC(=O)Nc1ccc(C(=O)CCl)cc1 | T |
| CCCOCCO | F |
| CC(C)(N=C=O)c1cccc(C(C)(C)N=C=O)c1 | F |
| CC(CN=Cc1ccccc1O)N=Cc1ccccc1O (centres undefined) | F |
| C=Cc1ccc(C)cc1 | F |
| O=c1c(O)c(-c2ccc(O)cc2)oc2cc(O)cc(O)c12 | F |
| O=[N+]([O-])c1cccc(Cl)c1 | F |
